# Test system: MDA-MB-231
# measurement protocol: Antiproliferative activity against human MDA-MB-231 cells after 96 hrs by MTT assay
# Format: functional, cell-based
# setup conditions: MDA-MB-231, 96 h
assay metric: IC50

CC(C)=CCC/C(C)=C/CC/C(C)=C/CC[C@]1(C)CCc2cc(OC(=O)NS(=O)(=O)c3ccc(Cl)cc3)c(C)c(C)c2O1 | > 10 µM
CC(C)=CCC/C(C)=C/CC/C(C)=C/CC[C@]1(C)CCc2c(C)c(OC(=O)Nc3ccccc3)c(C)c(C)c2O1 | > 10 µM
CC(C)=CCC/C(C)=C/CC/C(C)=C/CC[C@]1(C)CCc2cc(OC(=O)NCc3ccccc3)c(C)c(C)c2O1 | > 10 µM

As a next step, examine the molecule that follows.
Query block: Request the reported IC50 associated with `CC(C)=CCC/C(C)=C/CC/C(C)=C/CC[C@]1(C)CCc2cc(OC(=O)Nc3ccccc3)c(C)c(C)c2O1`
Result block: > 10 µM
